Hey, just so you know, these numbers are from patent US20230302148A1.

Biological target: T1, human GIP receptor (human, UniProt P48546 22-466)
T1 sequence (looked up): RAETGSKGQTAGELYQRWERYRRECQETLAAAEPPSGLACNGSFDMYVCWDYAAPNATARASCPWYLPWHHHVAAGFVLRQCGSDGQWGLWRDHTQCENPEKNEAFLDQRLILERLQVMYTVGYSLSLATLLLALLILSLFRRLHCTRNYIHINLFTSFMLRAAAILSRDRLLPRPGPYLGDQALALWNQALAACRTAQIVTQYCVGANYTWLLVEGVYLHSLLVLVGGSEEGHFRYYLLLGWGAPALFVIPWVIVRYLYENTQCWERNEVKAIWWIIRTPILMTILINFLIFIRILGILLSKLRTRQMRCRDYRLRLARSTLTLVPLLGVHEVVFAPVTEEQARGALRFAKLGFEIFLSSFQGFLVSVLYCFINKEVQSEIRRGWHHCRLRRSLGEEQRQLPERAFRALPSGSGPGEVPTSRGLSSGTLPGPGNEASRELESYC
Experiment: cell-based or functional assay
Bridges are numbered along the chain shown (N, C = ends). Where no end group is shown, it is not given here. [ ]: non-standard residue; d: D form. The star is where a group is joined. Acetyl(2-(4-imidazolyl)) = O=C(Cc1c[nH]cn1)*; Aib = CC(C)(N)C(=O)O
Observed property: In vitro activity relative to native peptide (%) vs. GIP

Consider the reported In vitro activity relative to native peptide (%) vs. GIP for these binders:
{"Binder": "[Acetyl(2-(4-imidazolyl))][Aib]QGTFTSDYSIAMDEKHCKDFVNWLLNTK (bridge 16-20; not fully specified) [triple agonist of SEQ ID NO: 60]", "Value": "8.2%"}
{"Binder": "Y[Aib]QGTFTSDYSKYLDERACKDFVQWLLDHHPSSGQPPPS (bridge 16-20) [triple agonist of SEQ ID NO: 71]", "Value": "94.7%"}

Now examine the next entry.
Quick check: In vitro activity relative to native peptide (%) vs. GIP of Y[Aib]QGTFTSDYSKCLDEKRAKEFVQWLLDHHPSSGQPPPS (bridge 16-20) [triple agonist of SEQ ID NO: 22] ?
59.7%
